- tested-target: T1, HA69 peptide on HLA DQB1*06:02/DQA1*01:02 (DQ0602) (human)
- T1 peptide: AMERNAGSGIIISDT
- experiment-notes: activation reporter or marker
readout: binding result

Observe how each entry below is paired with its result.
* TCR CATDAELGNKLVF / CASSQDRGRGTDTQYF (TCR) alpha TRAV17 TRAJ47 CDR3: CATDAELGNKLVF beta TRBV4-2 TRBJ2-3 CDR3: CASSQDRGRGTDTQYF | recognises
* TCR CALTMKTSYDKVIF / CASSIGTSGPDTQYF (TCR) alpha TRAV9-2 TRAJ50 CDR3: CALTMKTSYDKVIF beta TRBV19 TRBJ2-3 CDR3: CASSIGTSGPDTQYF | recognises
* TCR CAVGSTDSWGKLQF / CASRLDPTGHMNTEAFF (TCR) alpha TRAV8-3 TRAJ24 CDR3: CAVGSTDSWGKLQF beta TRBV19 TRBJ1-1 CDR3: CASRLDPTGHMNTEAFF | recognises
* …-1 (TCR) alpha TRAV38-2/DV8 TRAJ39 CDR3: CAYRSFNNAGNMLTF beta TRBV28 TRBJ1-6 CDR3: CASTETGSNSPLHF | no recognition
* TCR872 (TCR) alpha TRAV17 TRAJ34 CDR3: CATVGYNTDKLIF beta TRBV4-3 TRBJ1-4 CDR3: CASSQGLGPTNEKLFF | recognises

Incoming: binding result for …-1 (TCR) alpha TRAV8-6 TRAJ42 CDR3: CAVMGYGGSQGNLIF beta TRBV4-3 TRBJ2-1 CDR3: CASSQELGVYNEQFF ?
Outgoing: no recognition

Incoming: binding result for TCR CAVEETSGSRLTF / CASSQPDTRADTQYF (TCR) alpha TRAV39 TRAJ58 CDR3: CAVEETSGSRLTF beta TRBV4-2 TRBJ2-3 CDR3: CASSQPDTRADTQYF ?
Outgoing: recognises
